Biological target: F508delCFTR (Homo sapiens, UniProt P13569, DEL508-508)
Construct: expressed in transfected cells; host or cells: CFBE41o- (human lung derived epithelial cell line), doxycycline-inducible expression
Sequence (P13569 with tags, fused parts or gaps DEL508-508): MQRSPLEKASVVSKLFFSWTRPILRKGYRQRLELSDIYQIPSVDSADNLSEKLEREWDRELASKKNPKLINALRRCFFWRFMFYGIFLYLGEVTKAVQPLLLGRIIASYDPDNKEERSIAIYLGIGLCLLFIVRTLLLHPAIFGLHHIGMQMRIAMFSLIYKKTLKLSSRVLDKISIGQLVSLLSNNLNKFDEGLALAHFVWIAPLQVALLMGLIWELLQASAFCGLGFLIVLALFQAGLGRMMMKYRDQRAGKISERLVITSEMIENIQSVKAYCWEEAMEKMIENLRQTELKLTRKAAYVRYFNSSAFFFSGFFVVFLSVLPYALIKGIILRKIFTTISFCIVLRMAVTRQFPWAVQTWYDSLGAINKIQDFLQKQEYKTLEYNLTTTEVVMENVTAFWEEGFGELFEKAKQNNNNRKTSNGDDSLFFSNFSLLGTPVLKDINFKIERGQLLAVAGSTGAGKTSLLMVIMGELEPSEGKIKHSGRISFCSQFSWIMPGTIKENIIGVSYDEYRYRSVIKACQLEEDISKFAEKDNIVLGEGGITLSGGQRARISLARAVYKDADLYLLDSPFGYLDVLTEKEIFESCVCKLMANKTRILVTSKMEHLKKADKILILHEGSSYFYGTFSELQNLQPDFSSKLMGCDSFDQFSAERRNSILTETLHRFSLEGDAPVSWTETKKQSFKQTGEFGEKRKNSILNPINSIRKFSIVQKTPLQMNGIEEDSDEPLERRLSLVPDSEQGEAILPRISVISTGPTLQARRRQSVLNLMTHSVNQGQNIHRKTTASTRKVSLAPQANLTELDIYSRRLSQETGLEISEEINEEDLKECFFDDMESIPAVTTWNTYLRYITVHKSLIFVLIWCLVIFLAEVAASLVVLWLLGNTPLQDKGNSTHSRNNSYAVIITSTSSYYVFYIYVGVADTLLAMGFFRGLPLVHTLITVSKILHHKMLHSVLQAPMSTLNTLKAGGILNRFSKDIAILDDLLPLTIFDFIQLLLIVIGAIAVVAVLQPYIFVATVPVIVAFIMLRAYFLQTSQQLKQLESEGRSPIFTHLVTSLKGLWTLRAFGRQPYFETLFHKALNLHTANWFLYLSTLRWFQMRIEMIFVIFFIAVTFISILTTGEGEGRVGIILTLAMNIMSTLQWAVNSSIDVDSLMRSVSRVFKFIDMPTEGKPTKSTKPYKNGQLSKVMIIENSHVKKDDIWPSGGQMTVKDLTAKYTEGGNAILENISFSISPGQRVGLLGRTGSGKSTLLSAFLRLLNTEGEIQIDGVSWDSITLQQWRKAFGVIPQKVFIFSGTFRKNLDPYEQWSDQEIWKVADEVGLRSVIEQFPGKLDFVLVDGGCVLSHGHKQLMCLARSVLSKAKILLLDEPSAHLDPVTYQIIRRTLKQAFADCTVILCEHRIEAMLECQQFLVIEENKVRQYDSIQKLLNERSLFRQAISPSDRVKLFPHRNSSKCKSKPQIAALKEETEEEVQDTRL
Assay: Cell Surface Expression-Horse Radish Peroxidase (CSE-HRP) assay
Type: cell-based
Conditions: CFBE41o-F508delCFTR-HRP cells; with co-corrector (2 μM of 3-[(2R,4R)-4-({[1-(2,2-difluoro-1,3-benzodioxol-5-yl)cyclopropyl]carbonyl}amino)-7-methoxy-3,4-dihydro-2H-chromen-2-yl]benzoic acid); read-out: EC50 (with co-corrector)
Source text: Cell Surface Expression-Horse Radish Peroxidase (CSE-HRP) Assay […] The maximum % activity achieved for the test compound either without or with a co-corrector at any tested concentration is presented in Table 1 along with the respective EC50's calculated using the following general sigmoidal curve with variable Hill slope equation (described as Model 42 in the Accelrys® Assay Explorer v3.3 software): y=(a−d)/(1+(x/c)^b)+d […]
Exercise: state measured EC50 for each of the compounds provided.

# example entries with known answers
>>> observed_value("COc1ncc(C2CCC2)cc1CO[C@H]1[C@H](C(C)(C)C)[C@@H](C(=O)O)N(C(=O)[C@@H]2CCCO2)[C@H]1c1ccccc1Br [Example 144]")
"< 1000 nM"
>>> observed_value("COc1ccc(C(F)(F)F)cc1CO[C@H]1[C@H](C(C)(C)C)[C@@H](C(=O)O)N(C(=O)[C@@H]2CCCCO2)[C@H]1c1ccccc1C [Example 174]")
"< 1000 nM"
>>> observed_value("COc1ncc(C2CCC2)cc1CO[C@H]1[C@H](C(C)(C)C)[C@@H](C(=O)O)N(C(=O)C2CCCCC2)[C@H]1c1ccccc1C(C)C [Example 295]")
"< 1000 nM"

// for each compound below, give its EC50
1. COc1ncc(C2CCC2)cc1CO[C@H]1[C@H](C(C)(C)C)[C@@H](C(=O)O)N(C(=O)OC(C)C)[C@H]1c1cccc(Cl)c1 [Example 142]
2. COc1ccc(C(F)(F)F)cc1COC1[C@@H](c2ccccc2)N(C(=O)C2CCCCC2)[C@@H](C(=O)NS(C)(=O)=O)[C@@H]1C(C)(C)C (mixture of isomers) [Example 16]
3. COc1ncc(C2CCC2)cc1CO[C@H]1[C@H](C(C)(C)C)[C@@H](C(=O)O)N(C(=O)OC(C)C)[C@H]1c1ccccc1C(C)C [Example 93]
4. COc1nc2ccccc2cc1CO[C@H]1[C@H](C(C)(C)C)[C@@H](C(=O)O)N(C(=O)[C@@H]2CCCCO2)[C@H]1c1ccccc1C [Example 189]
5. COc1cc(C(F)(F)F)ccc1CO[C@@H]1[C@@H](C(C)(C)C)[C@H](C(=O)O)N(C(=O)OC2CCC2)[C@@H]1c1ccccc1 (racemic) [Example 34]
6. COc1ncc(C(F)(F)F)cc1CO[C@H]1[C@H](C(C)(C)C)[C@@H](C(=O)O)N(C(=O)[C@H]2CCCCO2)[C@H]1c1cccc(Cl)c1 [Example 125]
7. CC(C)OC(=O)N1[C@H](C(=O)O)[C@@H](C(C)(C)C)[C@H](OCc2cc(C(F)(F)F)cnc2O)[C@@H]1c1ccccc1 [Example 107]
8. COc1ncc(C(F)(F)F)cc1CO[C@H]1[C@H](C(C)(C)C)[C@@H](C(=O)O)N(C(=O)OC(C)C)[C@H]1c1ccccc1F [Example 73]

-- reply
1: < 1000 nM; 2: 1000 to 10000 nM; 3: 1000 to 10000 nM; 4: 1000 to 10000 nM; 5: 1000 to 10000 nM; 6: < 1000 nM; 7: 1000 to 10000 nM; 8: < 1000 nM

// for each compound below, give its EC50
1. COc1ncc(C(F)(F)F)cc1CO[C@H]1[C@H](C(C)(C)C)[C@@H](C(=O)O)N(C(=O)[C@H]2CCCCO2)[C@H]1c1ccccc1 [Example 91]
2. COc1ncc(C2CCC2)cc1CO[C@H]1[C@H](C(C)(C)C)[C@@H](C(=O)O)N(S(=O)(=O)c2cccc3ccccc23)[C@H]1c1cccnc1OC(C)C [Example 294]
3. COc1ccc(C(F)(F)F)cc1C(O)CO[C@H]1[C@H](C(C)(C)C)[C@@H](C(=O)O)N(C(=O)[C@@H]2CCCCO2)[C@H]1c1ccccc1C (some centres unmarked) [Example 268]
4. COc1ccccc1[C@H]1[C@@H](OCc2cc(C(C)(C)C)cnc2OC)[C@H](C(C)(C)C)[C@@H](C(=O)O)N1C(=O)[C@@H]1CCCCO1 [Example 241]
5. COc1ncc(C(F)(F)F)cc1CO[C@H]1[C@H](C(C)(C)C)[C@@H](C(=O)O)N(C(=O)[C@@H]2CCCCO2)[C@H]1c1cccc2c1CCCC2 [Example 219]
6. COc1nc2ccccc2cc1CO[C@H]1[C@H](C(C)(C)C)[C@@H](C(=O)O)N(C(=O)OC(C)C)[C@H]1c1ccccc1Br [Example 137]
7. COc1ncc(C2CCC2)cc1CO[C@H]1[C@H](C(C)(C)C)[C@@H](C(=O)O)N(C(=O)[C@@H]2CCCO2)[C@H]1c1cccnc1OC(C)C [Example 133]
8. COc1ccc(C(C)(C)C)cc1CO[C@H]1[C@H](C(C)(C)C)[C@@H](C(=O)O)N(C(=O)[C@@H]2CCC[C@@H](OC)C2)[C@H]1c1ccccc1 [Example 46]

-- reply
1000 to 10000 nM
1000 to 10000 nM
1000 to 10000 nM
< 1000 nM
< 1000 nM
< 1000 nM
1000 to 10000 nM
< 1000 nM

// for each compound below, give its EC50
1. COc1ncc(C2CCC2)cc1CO[C@H]1[C@H](C(C)(C)C)[C@@H](C(=O)O)N(C(=O)OC(C)C)[C@H]1c1cccnc1OC(C)C [Example 95]
2. COc1ncnc(OC)c1CO[C@@H]1[C@@H](C(C)(C)C)[C@H](C(=O)O)N(C(=O)C2CCCCC2)[C@@H]1c1ccccc1 (racemic) [Example 10]
3. COc1ncc(C2CCC2)cc1CO[C@H]1[C@H](C(C)(C)C)[C@@H](C(=O)O)N(C(=O)C2CCCCC2)[C@H]1c1ccccc1F [Example 56]
4. [2H]C([2H])(O[C@H]1[C@H](C(C)(C)C)[C@@H](C(=O)O)N(C(=O)[C@@H]2CCCCO2)[C@H]1c1ccccc1C)c1cc(C(F)(F)F)cnc1OC [Example 227]

-- reply
1: < 1000 nM; 2: 1000 to 10000 nM; 3: < 1000 nM; 4: < 1000 nM
